assay: Cytotoxicity against African green monkey MARC145 cells by CCK8 assay; type: cell-based; conditions: chlorocebus aethiops
Could you please report measured CC50 for the items listed next?

Below, each entry is followed by its recorded CC50 result.
Summary for this compound, `CCc1cccc2c1N(C)Cc1cc(OC(C)=O)c(OC(C)=O)cc1-2` : CC50 is > 100 µM

Summary for this compound, `CCc1cccc2c1N(C)Cc1cc(OC)c(OC)cc1-2` : CC50 is > 100 µM

Query compound follows.
Summary for this compound, `CCc1cccc2c1N(C)Cc1cc(OCc3cc(C)n(C)n3)c(OCc3cc(C)n(C)n3)cc1-2` : CC50 is > 100 µM

###

Could you please report measured selectivity ratio for the items listed next?
assay: Selectivity index, ratio of CC50 for cytotoxicity against African green monkey MARC145 cells to EC50 for antiviral activity against PEDV 85-7; type: toxicity, cell-based; details: read-out: Ratio CC50/EC50

Summary for this molecule, `CCc1cccc2c1N(C)Cc1cc(OC)c(OC)cc1-2` : selectivity ratio is > 53

Summary for this molecule, `CCc1cccc2c1N(C)Cc1cc(OC(C)=O)c(OC(C)=O)cc1-2` : selectivity ratio is > 30

Query molecule follows.
Summary for this molecule, `CCc1cccc2c1N(C)Cc1cc(OCc3cc(C)n(C)n3)c(OCc3cc(C)n(C)n3)cc1-2` : selectivity ratio is > 134
